- ASSAY_TARGET: human MGL from HeLa cells (Homo sapiens, UniProt Q99685)
- Construct: combining endogenously expressed MGL from HeLa cells with test compounds; endogenous in cells; host or cells: HeLa cells / cell homogenates
- TEST_SUMMARY: In vitro MGL activity assay: [glycerol-1,3-3H]-oleyl glycerol cleavage by MGL from HeLa cells
- Assay type: biochemical
- EXPERIMENTAL_PARAMETERS: 300 nM [Glycerol-1,3-3H]-oleyl glycerol, one hour incubation
READOUT_NAME: IC50 (nM)

CCc1nc(C(=O)N2CCc3c(nn(C)c3-c3cc(F)cc(F)c3)[C@@H]2C)nn1-c1ccccc1 [Example 149] : 11.9
Cc1c(C(=O)N2CCc3c(nn(C)c3-c3ccccc3)C2)cccc1N1CCOCC1 [Example 19] : 4820

(A) COc1ccc(-c2c3c(nn2C)[C@H](C)N(C(=O)c2ccc4nccnc4c2)CC3)cc1F [Example 185]
(B) C[C@H]1c2nn(C)c(-c3cc(F)cc(F)c3)c2CCN1C(=O)c1cc(C(F)(F)F)c2ncccc2c1 [Example 164]
Task item: In the pair A and B , the larger recorded IC50 belongs to which? Write the label of whichever entry you select.
Reply: A

---

- ASSAY_TARGET: human MGL from HeLa cells (Homo sapiens, UniProt Q99685)
- Construct: combining endogenously expressed MGL from HeLa cells with test compounds; endogenous in cells; host or cells: HeLa cells / cell homogenates
- Sequence (Q99685 1-303): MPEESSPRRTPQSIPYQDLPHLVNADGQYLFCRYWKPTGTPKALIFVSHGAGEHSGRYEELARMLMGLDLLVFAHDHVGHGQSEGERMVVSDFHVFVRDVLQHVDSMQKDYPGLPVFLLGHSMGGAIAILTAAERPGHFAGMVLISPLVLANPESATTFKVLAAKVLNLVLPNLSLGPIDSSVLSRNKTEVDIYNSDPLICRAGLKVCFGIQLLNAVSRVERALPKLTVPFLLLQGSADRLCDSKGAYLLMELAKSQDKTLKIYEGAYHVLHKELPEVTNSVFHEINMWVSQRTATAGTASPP
- TEST_SUMMARY: In vitro MGL activity assay: [glycerol-1,3-3H]-oleyl glycerol cleavage by MGL from HeLa cells
- Type: biochemical
- EXPERIMENTAL_PARAMETERS: 300 nM [Glycerol-1,3-3H]-oleyl glycerol, one hour incubation
READOUT_NAME: IC50 (nM)

These solved cases illustrate the format of a correct answer.
Cn1nc2c(c1-c1ccccc1)CCN(C(=O)c1nsc3ccccc13)C2 [Example 63] : 49
Cn1nc2c(c1C1CC1)CCN(C(=O)c1cccc3ccccc13)C2 [Example 3] : 799
Cn1nc2c(c1-c1ccccc1)CCN(C(=O)c1ccnc3c1ccn3C)C2 [Example 84] : 48.3
CC1c2nn(C)c(-c3cc(F)cc(F)c3)c2CCN1C(=O)c1ccc2ncccc2c1Cl (stereo not shown) [Example 163] : 11.8

(A) C[C@H]1c2nn(C)c(-c3cc(F)c(F)c(F)c3)c2CCN1C(=O)c1ccc(-n2ccnc2)cc1 [Example 267]
(B) C[C@H]1c2nn(C)c(-c3cc(F)c(F)c(F)c3)c2CCN1C(=O)c1ccc2ncccc2n1 [Example 244]
Task item: Smaller IC50 value, A vs B ? Lab log: write the label of the selected item as the result.
Reply: B

(1) C[C@H]1c2nn(C)c(-c3cc(F)c(F)c(F)c3)c2CCN1C(=O)c1cc(-c2cnn(C)c2)ccc1F [Example 274]
(2) C[C@H]1c2nn(C)c(-c3cc(F)c(F)c(F)c3)c2CCN1C(=O)c1cncc2c1ccn2C [Example 224]
(3) Cn1nc2c(c1-c1ccccc1)CCN(C(=O)c1cccc(O)c1Cl)C2 [Example 12]
(4) COc1ccc(C(=O)N2CCc3c(nn(C)c3-c3cc(F)c(F)c(F)c3)[C@@H]2C)cc1-n1cnnc1 [Example 297]
(5) C[C@H]1c2nn(C)c(-c3ccc(OC(F)F)c(F)c3)c2CCN1C(=O)c1ccc2nccnc2c1 [Example 189]
Task item: Put these in order: smallest IC50 first, largest last. API: response body holds the labels in the requested order.
Reply: 2, 1, 5, 4, 3

(1) C[C@H]1c2nn(C)c(-c3cc(F)c(F)c(F)c3)c2CCN1C(=O)c1cnc2c(ccn2C)c1 [Example 226]
(2) COc1ccc(C(=O)N2CCc3c(nn(C)c3-c3cc(F)c(F)c(F)c3)[C@@H]2C)c(F)c1 [Example 265]
Task item: Identify the entry with the larger IC50. Options: 1 and 2 Your choice should be expressed through its label.
Reply: 2
(2: 35 nM, 1: 16.2 nM)

(I) C[C@H]1c2nn(C)c(-c3cncc(F)c3)c2CCN1C(=O)c1ccc2nccnc2c1 [Example 109]
(II) Cn1nc2c(c1-c1ccccc1)CCN(C(=O)c1cccc(OC(F)(F)F)c1F)C2 [Example 4]
(III) C[C@H]1c2nn(C)c(-c3cc(F)c(F)c(F)c3)c2CCN1C(=O)c1cn(C)c2ccncc12 [Example 219]
Task item: Give the ascending ranking of the items by reported IC50. Dear reader, please state the labels in the requested order.
Reply: III, II, I
(III: 28.6 nM, II: 433 nM, I: 721 nM)
